Test: Plasma concentration in Sprague-Dawley rat at 5 mg/kg, po measured 4 hrs post dose
Format: ADME, organism-based
Design: dose 5 mg/kg, route oral
Parameter: concentration at 4 h (ng/mL)
Please state the figure in ng/mL; there is no need to write the unit.

// solved cases for concentration at 4 h follow
INSERT INTO assay_data (structure_notation, parameter, reported_value) VALUES
  ('COC(=O)N[C@H](C(=O)N1CCC[C@H]1c1ncc(-c2ccc3c(c2)Oc2ccc(-c4cnc([C@@H]5CCCN5C(=O)[C@@H](NC(=O)OC)C(C)C)[nH]4)cc2O3)[nH]1)C(C)C', 'concentration at 4 h', 199),
  ('COC(=O)N[C@H](C(=O)N1CCC[C@H]1c1ncc(-c2ccc3c(=O)c4cc(-c5cnc([C@@H]6CCCN6C(=O)[C@@H](NC(=O)OC)C(C)C)[nH]5)ccc4oc3c2)[nH]1)C(C)C', 'concentration at 4 h', 14);

Dear colleague, I am looking for the recorded concentration at 4 h of the following compound: COC(=O)N[C@H](C(=O)N1CCC[C@H]1c1ncc(-c2ccc3c(c2)Cc2ccc(-c4cnc([C@@H]5CCCN5C(=O)[C@@H](NC(=O)OC)C(C)C)[nH]4)cc2O3)[nH]1)C(C)C
371

Which concentration at 4 h is reported for this compound? COC(=O)N[C@H](C(=O)N1CCC[C@H]1c1ncc(-c2ccc3c(c2)Oc2ccc(-c4cnc([C@@H]5CCCN5C(=O)[C@@H](NC(=O)OC)C(C)C)[nH]4)cc2C3(C)C)[nH]1)C(C)C
833

---

EC50 reference
Test system: Hepatitis C virus
Test: Antiviral activity against HCV genotype 1a infected in human HuH7 cells by luciferase reporter gene assay
Assay type: functional, cell-based, Hepacivirus hominis
Stated conditions: subtype 1a, Huh-7

INSERT INTO assay_data (structure_notation, assay_system, reported_value) VALUES
  ('COC(=O)N[C@H](C(=O)N1CCC[C@H]1c1ncc(-c2ccc3c4ccc(-c5cnc([C@@H]6CCCN6C(=O)[C@@H](NC(=O)OC)C(C)C)[nH]5)cc4n(C)c3c2)[nH]1)C(C)C', 'Hepatitis C virus', '7.7 nM'),
  ('COC(=O)N[C@H](C(=O)N1CCC[C@H]1c1ncc(-c2ccc3c(c2)Cc2cc(-c4cnc([C@@H]5CCCN5C(=O)[C@@H](NC(=O)OC)C(C)C)[nH]4)ccc2O3)[nH]1)C(C)C', 'Hepatitis C virus', '> 100 nM');

I am curious: what EC50 value has been reported for COC(=O)N[C@H](C(=O)N1CCC[C@H]1c1ncc(-c2ccc3c(c2)oc2ccc(-c4cnc([C@@H]5CCCN5C(=O)[C@@H](NC(=O)OC)C(C)C)[nH]4)cc23)[nH]1)C(C)C ?
1.8 nM

Give its EC50 value. Item: COC(=O)N[C@H](C(=O)N1CCC[C@H]1c1ncc(-c2ccc3oc4ccc(-c5cnc([C@@H]6CCCN6C(=O)[C@@H](NC(=O)OC)C(C)C)[nH]5)cc4c3c2)[nH]1)C(C)C
9 nM

Which EC50 reading was recorded for the compound COC(=O)N[C@H](C(=O)N1CCC[C@H]1c1ncc(-c2ccc3oc4cc(-c5cnc([C@@H]6CCCN6C(=O)[C@@H](NC(=O)OC)C(C)C)[nH]5)c(C)cc4c(=O)c3c2)[nH]1)C(C)C ?
3.4 nM

Given the compound COC(=O)N[C@H](C(=O)N1CCC[C@H]1c1ncc(-c2ccc3c(c2)C(C)(C)c2cc(-c4cnc([C@@H]5CCCN5C(=O)[C@@H](NC(=O)OC)C(C)C)[nH]4)ccc2-3)[nH]1)C(C)C , what is its reported EC50?
1.14 nM

EC50 for COC(=O)N[C@H](C(=O)N1CCC[C@H]1c1ncc(-c2ccc3oc4cc(-c5cnc([C@@H]6CCCN6C(=O)[C@@H](NC(=O)OC)C(C)C)[nH]5)c(Cl)cc4c(=O)c3c2)[nH]1)C(C)C ?
2.5 nM

Which EC50 value is on record for COC(=O)N[C@H](C(=O)N1CCC[C@H]1c1ncc(-c2ccc3c(c2)CCc2cc(-c4cnc([C@@H]5CCCN5C(=O)[C@@H](NC(=O)OC)C(C)C)[nH]4)ccc2O3)[nH]1)C(C)C ?
4.8 nM

Using the record for COC(=O)N[C@H](C(=O)N1CCC[C@H]1c1ncc(-c2ccc3c(c2)C(=O)c2cc(-c4cnc([C@@H]5CCCN5C(=O)[C@@H](NC(=O)OC)C(C)C)[nH]4)ccc2-3)[nH]1)C(C)C , report its EC50.
0.45 nM

Consider the compound shown here: COC(=O)N[C@H](C(=O)N1CCC[C@H]1c1ncc(-c2ccc3c(c2)oc2cc(-c4cnc([C@@H]5CCCN5C(=O)[C@@H](NC(=O)OC)C(C)C)[nH]4)ccc23)[nH]1)C(C)C What is its recorded EC50?
0.4 nM
